Recorded measurements of IC50, one per entry
# Target Of Assay: Growth factor receptor-bound protein 2 (Homo sapiens)
# Sequence (P62993 whole entry, the tested form may be a part): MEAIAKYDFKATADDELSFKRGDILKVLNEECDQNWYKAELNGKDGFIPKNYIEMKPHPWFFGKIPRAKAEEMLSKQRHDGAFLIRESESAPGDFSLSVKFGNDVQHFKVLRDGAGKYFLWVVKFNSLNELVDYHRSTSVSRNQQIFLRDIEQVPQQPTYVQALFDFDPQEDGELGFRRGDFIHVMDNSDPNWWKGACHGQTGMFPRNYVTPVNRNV
# Test Description: Binding affinity for Growth factor receptor bound protein 2 SH2 domain
Dear colleague, please return just the value in nM, with no unit written.

NC(=O)C[C@H](NC(=O)C1(NC(=O)[C@H](Cc2ccc(CP(=O)(O)O)cc2)NC(=O)C(=O)O)CCCCC1)C(=O)NCCCc1cccc2ccccc12; 9
NC(=O)C[C@H](NC(=O)C1(NC(=O)[C@@H](CC(=O)O)Cc2ccc(CP(=O)(O)O)cc2)CCCCC1)C(=O)NCCCc1cccc2ccccc12; 8

Tested on Growth factor receptor-bound protein 2 (Homo sapiens), the item [N-]=[N+]=N[C@@H](Cc1ccc(CP(=O)(O)O)cc1)C(=O)NC1(C(=O)N[C@@H](CC(N)=O)C(=O)NCCCc2cccc3ccccc23)CCCCC1 showed IC50 equal to 5000
